Entries and their measured growth inhibition follow.
Assay: NCI Yeast Anticancer Drug Screen. Data for the sgs1 mgt1 strain (AID 161);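 also: 0% = growth of cultures given vehicle only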
Settings: S. cerevisiae sgs1 mgt1 strain, at 50.0 µM, hits give high values
Protocol: Growth inhibition of yeast strains with defined genetic alterations is measured as a screen for potential anti-cancer activity. Selected strains with alterations in DNA damage repair or cell cycle control were exposed to compounds and growth inhibition was measured relative to vehicle treated controls. The strain used in this assay is sgs1 mgt1
Compounds without any hit were thinned out: in the full panel of roughly 79,000, 15% have a hit.
Quantity: growth inhibition (%)

compound="CN(CC1CCCCC1=O)CC1CCCCC1=O (configuration not stated)" quantity="growth inhibition" u=% obs_value=-11.1
compound=O=c1c(SCc2ccccc2Cl)c(SCc2ccccc2Cl)cnn1-c1ccccc1 quantity="growth inhibition" u=% obs_value=12.6
compound=O=S1(=O)OCCOS(=O)(=O)C1(I)I quantity="growth inhibition" u=% obs_value=-2.35
compound=Nc1ncnc2oc(-c3ccccc3)nc12 quantity="growth inhibition" u=% obs_value=-6.35
compound="CC1(C)COC(C2(C)C(=O)C=C(c3ccccc3)c3ccccc32)=N1 (configuration not stated)" quantity="growth inhibition" u=% obs_value=29.8
compound=O=C(O)CSc1n[nH]c(-c2ccccc2O)n1 quantity="growth inhibition" u=% obs_value=17.8
compound="CC(=O)OCC(=O)C1(C)CCC2(C)CCC3(C)C(=CC(=O)C4C5(C)CCC(=O)C(C)(C)C5CCC43C)C2C1 (configuration not stated)" quantity="growth inhibition" u=% obs_value=2.7
compound=COc1ccc(C=Nc2ccc([N+](=O)[O-])cc2O)cc1 quantity="growth inhibition" u=% obs_value=12.1
compound=O=C(C(=O)c1cccs1)c1cccs1 quantity="growth inhibition" u=% obs_value=34.4
compound="CC(COc1cc(Cl)c(Cl)cc1Cl)OC(=O)COc1ccc(Cl)cc1Cl (configuration not stated)" quantity="growth inhibition" u=% obs_value=7.7
compound=C/C(=N\NC(=O)c1cc(C)nc2ccc(Br)cc12)c1ccccc1O quantity="growth inhibition" u=% obs_value=79.8
compound=CCOC(=O)c1[nH]n(-c2ccccc2)c(=O)c1/C=N/C(=S)NCCc1ccc(OC)c(OC)c1 quantity="growth inhibition" u=% obs_value=5.4
compound=C/C(=N\NS(=O)(=O)c1ccccc1)c1ccc(Cl)c(Cl)c1 quantity="growth inhibition" u=% obs_value=-18.9
compound=CCCc1[nH]nc(CCC(=O)N(Cc2ccccc2)Cc2ccccc2)c1CC quantity="growth inhibition" u=% obs_value=11.6
compound=O=[N+]([O-])C(C=C(n1nnc2ccccc21)n1nnc2ccccc21)=C(n1nnc2ccccc21)n1nnc2ccccc21 quantity="growth inhibition" u=% obs_value=16.7
compound="CC(=O)OCC1(C)NC(=O)c2ccccc2O1 (configuration not stated)" quantity="growth inhibition" u=% obs_value=6.9
compound="C=CCOc1cc2c(cc1C(C)c1ccc(OC)c(OC)c1)OCO2 (configuration not stated)" quantity="growth inhibition" u=% obs_value=17.3
compound=C=CC(C)(C)/C=C/C=O quantity="growth inhibition" u=% obs_value=-12.1
compound="CC12CCC/C(=N\\NC(N)=S)C1C(=O)NC(=O)C2 (configuration not stated)" quantity="growth inhibition" u=% obs_value=-2.6
compound="CC(Oc1ccccc1-c1ccccc1)C(=O)O (configuration not stated)" quantity="growth inhibition" u=% obs_value=-5.9
compound="CCCCC(CC)CC#N (configuration not stated)" quantity="growth inhibition" u=% obs_value=21.1
compound=COc1ccc(/C=C2/SC(=Nc3ccccc3)N(NC(=O)Cc3ccccc3)C2=O)c(OC)c1 quantity="growth inhibition" u=% obs_value=7.45
compound="Cc1cccc2c1Oc1ccccc1C2NC(=O)c1ccc([N+](=O)[O-])cc1 (configuration not stated)" quantity="growth inhibition" u=% obs_value=-34.5
compound=Sc1ccccc1N=Cc1ccc(C=Nc2ccccc2S)cc1 quantity="growth inhibition" u=% obs_value=7.1
compound="COC(=O)C(=O)C(C(=O)C(N)=O)c1nc2ccc(C(=O)c3ccccc3)cc2[nH]c1=O (configuration not stated)" quantity="growth inhibition" u=% obs_value=-17.2
compound=CCOC(OCC)c1ccc(O)cc1 quantity="growth inhibition" u=% obs_value=20.3
compound=COC(=O)c1ccccc1/C=C1\Cc2cc3c(cc2C1=O)CCC3 quantity="growth inhibition" u=% obs_value=-1.45
compound=O=C1C=C(NCC(c2ccccc2)c2ccccc2)C(=O)c2ncccc21 quantity="growth inhibition" u=% obs_value=43
compound="O=C(NC(Cc1cnc[nH]1)C(=O)N1CCCC1)C1CCCC1 (configuration not stated)" quantity="growth inhibition" u=% obs_value=13.7
compound=O=C(O)c1ccc(OC2CCCCC2)cc1 quantity="growth inhibition" u=% obs_value=42.1
compound=Oc1ccc(C2CCCC2)cc1 quantity="growth inhibition" u=% obs_value=-22.1
compound="CC1(C)C(O)c2ccccc2OC1N1CCN(C2Oc3ccccc3C(O)C2(C)C)CC1 (configuration not stated)" quantity="growth inhibition" u=% obs_value=23.8
compound=Oc1cccc2c1N1CCN2CC1 quantity="growth inhibition" u=% obs_value=11.2
compound="N#CC1C=Cc2ccccc2N1C(=O)Oc1ccccc1 (configuration not stated)" quantity="growth inhibition" u=% obs_value=10.6
compound=CCCCCC(=O)O quantity="growth inhibition" u=% obs_value=-42.1
compound="O=C1NC2OC(CO)C(O)C(O1)C2O (configuration not stated)" quantity="growth inhibition" u=% obs_value=-24.9
compound=ClCC(OCc1ccccc1)OCc1ccccc1 quantity="growth inhibition" u=% obs_value=-4.45
